Target: T1, GST–PPARγ fusion protein (purified ligand binding domain of PPARγ)
T1 chain: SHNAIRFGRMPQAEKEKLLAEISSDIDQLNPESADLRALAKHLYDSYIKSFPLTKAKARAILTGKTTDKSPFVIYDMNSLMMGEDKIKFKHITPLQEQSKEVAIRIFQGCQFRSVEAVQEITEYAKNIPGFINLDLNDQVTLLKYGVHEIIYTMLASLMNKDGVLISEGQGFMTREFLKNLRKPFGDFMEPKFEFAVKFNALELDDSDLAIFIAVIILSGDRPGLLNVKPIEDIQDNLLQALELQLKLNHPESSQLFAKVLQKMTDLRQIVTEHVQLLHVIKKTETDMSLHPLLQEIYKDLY
Experiment: FRET or BRET; homogeneous TR-FRET as a1, 12-concentration dose–response of aleglitazar; the EC50 is of the compound; delta ratio in % of the reference compound at 10 μM (RO4899100 for PPARα, edaglitazone for PPARγ)
Conditions: both partners purified
Where no end group is shown, it is not given here. The star is where a group is joined. Biotin = O=C1N[C@H]2[C@H](CS[C@H]2CCCCC(=O)*)N1; Ahx = NCCCCCC(=O)O
parameter: EC50 of aleglitazar for recruitment (nM)

{Biotin-Ahx}-GNTKNHPMLMNLLKDNPAQDF (thyroid hormone receptor-associated protein complex 220 kDa component (TRAP220), motif 2, residues 637-657; also called TRAP220_M2; TRAP220 M2; source: synthetic peptide (Jerini or Biosynthan, Berlin)) ... 3.2

I: {Biotin-Ahx}-LDASKKKESKDHQLLRYLLDKDEKD (source: synthetic peptide (Jerini or Biosynthan, Berlin)) [SRC1_M3 cofactor peptide (steroid receptor co-activator 1, motif 3)]
II: {Biotin-Ahx}-SGNLVPDAASKHKQLSELLRGGSGS (source: synthetic peptide (Jerini or Biosynthan, Berlin)) [CBP cofactor peptide (cAMP responsive element binding protein (CREB)-binding protein)]
Query: // select label with min value of measured EC50 of aleglitazar for recruitment from [ I , II ] Please indicate the selected item by its label.
Response: II
